Biological target: α-Synuclein (Homo sapiens)
Assay: isothermal titration calorimetry
Assay type: binding
measured-endpoint: pKd
pKd here: minus log base 10 of the concentration, concentration in moles per litre.

CC/C=C\C/C=C\C/C=C\CCCCCCCC(=O)O = 3.66

Please look at the following compound next.
IN: Could you share which pKd value was measured for CCCCCCCC/C=C\CCCCCCCC(=O)O ?
OUT: 3.75
